Provenance of the data: ChEMBL document CHEMBL4130411

Measurement notes: Selectivity ratio of cytotoxicity against human HaCaT cells to MIC for methicillin-resistant Staphylococcus aureus USA300 NRS384
Format: toxicity, cell-based
Quantity kind: selectivity ratio

// field: selectivity ratio; key: Cc1nc(-c2ccc3ccccc3c2)sc1-c1cnc(NC(=N)N)s1 ; value = 4 to 16

====

In this section, each of the compounds is paired with its reported MBC.
System: Staphylococcus aureus
Measurement notes: Bactericidal activity against vancomycin-resistant Staphylococcus aureus isolate 4 incubated for 20 hrs followed by replating on tryptic soy agar plates and further incubated for 18 hrs by broth microdilution assay
Assay type: functional
Numbers only here, please. The scale is µg/mL.

Examples with answers:
>>> print(df.to_string())
                               given_smiles          target_system      u  measurement
0  Cc1nc(-c2ccc(-c3ccccc3)cc2)sc1-c1cnc(NC(=N)N)s1  Staphylococcus aureus  µg/mL            8
1  CCCCc1ccc(-c2nc(C)c(-c3cnc(NC(=N)N)s3)s2)cc1  Staphylococcus aureus  µg/mL            8
2  CC(=O)NC[C@H]1CN(c2ccc(N3CCOCC3)c(F)c2)C(=O)O1  Staphylococcus aureus  µg/mL            8

Would you kindly look at the next entry?
Value sought: MBC, system Staphylococcus aureus, item Cc1nc(-c2ccc3ccccc3c2)sc1-c1cnc(NC(=N)N)s1 . Result: 4

====

Measurement notes: Intrinsic clearance in human liver microsomes in presence of NADPH by LC-MS/MS analysis
Format: ADME, microsome
Condition notes: read-out: CLH
Quantity kind: microsomal CLint (µL/min/mg)
Numbers only here, please. The scale is µL/min/mg.

// field: microsomal CLint; key: CCCCc1ccc(-c2nc(C)c(/C(C)=N/NC(=N)N)s2)cc1 ; value = 80.3

====

Measurement notes: Half life in human liver microsomes in presence of NADPH by LC-MS/MS analysis
Type: ADME, microsome
Condition notes: liver microsomes
Quantity kind: half-life (min)
Numbers only here, please. The scale is min.

// field: half-life; key: CCCCc1ccc(-c2nc(C)c(/C(C)=N/NC(=N)N)s2)cc1 ; value = 28.8

====

Measurement notes: Selectivity ratio of cytotoxicity against human HaCaT cells to MIC for methicillin-resistant Staphylococcus aureus NRS123 (USA400)
Format: toxicity, cell-based
Quantity kind: selectivity ratio

// field: selectivity ratio; key: Cc1nc(-c2ccc3ccccc3c2)sc1-c1cnc(NC(=N)N)s1 ; value = 4 to 16

====

In this section, each of the compounds is paired with its reported MBC.
Test system: Staphylococcus aureus
Measurement notes: Bactericidal activity against methicillin-resistant Staphylococcus aureus USA100 NRS382 incubated for 20 hrs followed by replating on tryptic soy agar plates and further incubated for 18 hrs by broth microdilution assay
Type: functional

Examples with answers:
                               given_smiles  measurement
0  Cc1nc(-c2ccc(-c3ccccc3)cc2)sc1-c1cnc(-c2cccnc2)s1   > 64 µg/mL
1  CC(=O)NC[C@H]1CN(c2ccc(N3CCOCC3)c(F)c2)C(=O)O1     16 µg/mL

// field: MBC; key: Cc1nc(-c2ccc3ccccc3c2)sc1-c1cnc(-c2cccnc2)s1 ; value = > 64 µg/mL

// field: MBC; key: Cc1nc(-c2ccc3ccccc3c2)sc1-c1cnc(NC(=N)N)s1 ; value = 2 µg/mL

// field: MBC; key: Cc1nc(-c2ccc(-c3ccccc3)cc2)sc1-c1cnc(NN)s1 ; value = > 64 µg/mL

// field: MBC; key: Cc1nc(-c2ccc3ccccc3c2)sc1-c1cnc(NN)s1 ; value = > 64 µg/mL
